# Absolute DNA transfection efficiency in HEK293 cells annotations
test system: HEK293 cells; test: Preliminary screening as DNA vectors, GFP transfection of HEK293 cells; format: cell-based; settings: amino lipid/DOPE liposome with 75 ng plasmid DNA (psin-EGFP-IRES-Puro); number of GFP-expressing cells divided by total nuclei (Hoechst)
assayEndpoint: Absolute DNA transfection efficiency in HEK293 cells (%)

compound | unitLabel | recordedResult
CCCCCCCCCCCCCCSc1nc(NCCCCCCCCCCC)nc(NCCN2CCOCC2)n1 [S14N11 D2] | % | 12.5
CCCCCCCSc1nc(NCCCCCC)nc(NCCCN2CCN(C)CC2)n1 | % | 20.3
CCCCCCCCCCCCCCCCCCNc1nc(NCCCN(C)C)nc(SCCCCCCCCCCCCCCCCCC)n1 | % | 0.4
CCCCCCCCCCCCCCCCCCSc1nc(NCCCCCCCC)nc(NCCN(CC)CC)n1 | % | 6.7
CCCCCCCCSc1nc(NCCCCCCC)nc(NCCN(CC)CC)n1 | % | 1.4
CCCCCCCCCCCCCNc1nc(NCCN2CCN(C)CC2)nc(SCCCCCCCCCCC)n1 | % | 8.4
CCCCCCCCCCCCCCCNc1nc(NCCCN2CCOCC2)nc(SCCCCCCCCCCCC)n1 | % | 0.0
CCCCCCCCCCSc1nc(NCCCCCC)nc(NCC2CCN(C)CC2)n1 | % | 0.9
CCCCCCCCCCCCCNc1nc(NCCN(CC)CC)nc(SCCCCCCCCCCCC)n1 | % | 12.9
CCCCCCCCCCCNc1nc(NCCN(C)C)nc(SCCCCCC)n1 [S6N11 D1] | % | 1.5
CCCCCCCCCCCCCCCNc1nc(NCCN2CCOCC2)nc(SCCCCCCCCCCCC)n1 [S12N15 D2] | % | 0.0
CCCCCCCCCCCNc1nc(NCCN2CCN(C)CC2)nc(SCCCCCCCCC)n1 | % | 45.0
CCCCCCCCCCCCCCSc1nc(NCCCCCCCC)nc(NCCN(C)C)n1 [S14N8 D1] | % | 8.9
CCCCCCCCCCCNc1nc(NCCCN(C)C)nc(SCCCCCC)n1 | % | 1.9
CCCCCCCSc1nc(NCCCCCC)nc(NCCN(C)C)n1 [S7N6 D1] | % | 17.6
CCCCCCCCCCCCSc1nc(NCCN2CCN(C)CC2)nc(SCCCCCCC)n1 | % | 9.6
CCCCCCCCCCCCCCCCCCNc1nc(NCCCN(C)C)nc(SCCCCCCCCCCCCCCCC)n1 | % | 0.0
CCCCCCCCCCCSc1nc(NCCN(CC)CC)nc(SCCCCCC)n1 | % | 10.1
CCCCCCCCCCSc1nc(NCCCN2CCN(C)CC2)nc(SCCCCCCC)n1 | % | 23.9

---

test system: HEK293 cells; assay: Preliminary screening as mRNA vectors, EGFP mRNA transfection of HEK293 cells; type: cell-based; conditions: EGFP mRNA 50 ng per well, 96-well plates; percentage of GFP fluorescent cells relative to total number of cells (Hoechst)
assayEndpoint: Absolute mRNA transfection efficiency in HEK293 cells (%)

testSmiles | systemTested | recordedResult
CCCCCCCCSc1nc(NCCN2CCCCC2)nc(SCCCCCCCC)n1 | HEK293 cells | 9.9
CCCCCCCCCCCCCCCCSc1nc(NCCCCCCCCCCCCC)nc(NCCCN2CCOCC2)n1 | HEK293 cells | 0.1
CCCCCCCCCCCCNc1nc(NCCCN2CCN(C)CC2)nc(SCCCCCCCCC)n1 | HEK293 cells | 36.0
CCCCCCCCCCCCSc1nc(NCCN2CCN(C)CC2)nc(SCCCCCCCC)n1 | HEK293 cells | 47.4
CCCCCCCCCCCSc1nc(NCCN2CCN(C)CC2)nc(SCCCCCCCC)n1 | HEK293 cells | 87.0
CCCCCCCCCCCCCCCCCCSc1nc(NCCCCCCCCC)nc(NCCN2CCN(C)CC2)n1 | HEK293 cells | 11.6
CCCCCCCCCCCCCCCNc1nc(NCCCN(C)C)nc(SCCCCCCCCCCCCCCC)n1 | HEK293 cells | 0.8
CCCCCCCCCCCCCCCSc1nc(NCCN2CCOCC2)nc(SCCCCCCC)n1 | HEK293 cells | 17.5
CCCCCCCCCCCCCCCSc1nc(NCCCCCCCCC)nc(NCCN2CCOCC2)n1 | HEK293 cells | 1.1
CCCCCCCCCCCCSc1nc(NCCCCCCCCCCC)nc(NCCN2CCN(C)CC2)n1 | HEK293 cells | 1.1
CCCCCCCCCCCCSc1nc(NCCCCCCCCC)nc(NCCN2CCCC2)n1 | HEK293 cells | 39.9
CCCCCCCCCSc1nc(NCCCCCC)nc(NCCN2CCCCC2)n1 | HEK293 cells | 0.3
CCCCCCCCCCCCCCCCCCNc1nc(NCCCN(C)C)nc(SCCCCCCC)n1 | HEK293 cells | 49.2
CCCCCCCCCCCCCCCNc1nc(NCCN(C)C)nc(SCCCCCCCCC)n1 | HEK293 cells | 27.4
CCCCCCCCCCCCCCSc1nc(NCCCCCCCCCCC)nc(NCCN2CCOCC2)n1 | HEK293 cells | 3.5
CCCCCCCCCCSc1nc(NCCCN2CCOCC2)nc(SCCCCCCC)n1 | HEK293 cells | 11.4
CCCCCCCCCCCCCCCNc1nc(NCC2CCN(C)CC2)nc(SCCCCCCC)n1 | HEK293 cells | 67.3
CCCCCCCCCSc1nc(NCCCCCCCC)nc(NCCN2CCOCC2)n1 | HEK293 cells | 22.6
CCCCCCCCCCCCNc1nc(NCC2CCN(C)CC2)nc(SCCCCCCCCCC)n1 | HEK293 cells | 15.5
CCCCCCCCNc1nc(NCCN(C)C)nc(SCCCCCC)n1 | HEK293 cells | 3.1
CCCCCCCCCCCCCCSc1nc(NCCN2CCCCC2)nc(SCCCCCCC)n1 | HEK293 cells | 8.3
CCCCCCCCCNc1nc(NCCCN2CCOCC2)nc(SCCCCCC)n1 | HEK293 cells | 1.2
CCCCCCCSc1nc(NCCN2CCN(C)CC2)nc(SCCCCCC)n1 | HEK293 cells | 10.0
CCCCCCCCCCCCCCSc1nc(NCCCN2CCN(C)CC2)nc(SCCCCCCC)n1 | HEK293 cells | 34.5
CCCCCCCCCCCCCCCNc1nc(NCCN(CC)CC)nc(SCCCCCCCCCCCCCCC)n1 | HEK293 cells | 1.8
CCCCCCCCCCCCCCCSc1nc(NCCCCCCCCCCC)nc(NCCCN(C)C)n1 | HEK293 cells | 7.8
CCCCCCCCCCCNc1nc(NCCN(CC)CC)nc(SCCCCCCCC)n1 | HEK293 cells | 9.0
CCCCCCCCCCCSc1nc(NCCCN(C)C)nc(SCCCCCCC)n1 | HEK293 cells | 68.6
CCCCCCCCCCCCCCCCCCSc1nc(NCCCCCCCC)nc(NCCN2CCN(C)CC2)n1 | HEK293 cells | 33.4
CCCCCCCCCCCCCCCSc1nc(NCCCCCCCCCCC)nc(NCCN2CCOCC2)n1 | HEK293 cells | 3.3
CCCCCCNc1nc(NCCN(CC)CC)nc(SCCCCCC)n1 | HEK293 cells | 1.2
CCCCCCCCCCCCCCCCCCNc1nc(NCCN2CCOCC2)nc(SCCCCCCCCC)n1 | HEK293 cells | 2.4
CCCCCCCCCCCCCCCCSc1nc(NCCCCCCCCCCCC)nc(NCCN2CCN(C)CC2)n1 | HEK293 cells | 3.4
